- System: 292921-168-R-J2-PDC KRAS tumor spheroid viability;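 note: drug exposure lasted seven days after spheroids formed for three days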
- protocol_details: Anticancer human tumor 292921-168-R-J2-PDC patient-derived pancreatic carcinoma cell line growth inhibition [KRAS2]; active = viability on the fitted dose curve at most 10% of control; inactive = the rest
- conditions_used: second compound 3.16 µM; first compound 10 µM; spheroids with HUVEC and MSC
// allowed return values: active, inactive

Look over these answered cases.
O=C(c1cc(Cc2n[nH]c(=O)c3ccccc23)ccc1F)N1CCN(C(=O)C2CC2)CC1 + C=CC(=O)N1CCN(c2nc(=O)n(-c3c(C)ccnc3C(C)C)c3nc(-c4c(O)cccc4F)c(F)cc23)C(C)C1 = inactive
COc1cc(Nc2ncc3c(n2)-c2ccc(Cl)cc2C(c2c(F)cccc2OC)=NC3)ccc1C(=O)O + C=CC(=O)N1CCN(c2nc(OCC3CCCN3C)nc3c2CCN(c2cccc4cccc(C)c24)C3)CC1CC#N = active
O=C(c1cc(Cc2n[nH]c(=O)c3ccccc23)ccc1F)N1CCN(C(=O)C2CC2)CC1 + CC1OCC2(CCN(c3cnc(Sc4ccnc(N)c4Cl)c(N)n3)CC2)C1N = inactive
COC(=O)c1ccc2c(C(=Nc3ccc(N(C)C(=O)CN4CCN(C)CC4)cc3)c3ccccc3)c(O)[nH]c2c1 + C=CC(=O)N1CCN(c2nc(=O)n(-c3c(C)ccnc3C(C)C)c3nc(-c4c(O)cccc4F)c(F)cc23)C(C)C1 = active
CC(C)NCC(C(=O)N1CCN(c2ncnc3c2C(C)CC3O)CC1)c1ccc(Cl)cc1 (configuration not stated) + CC1OCC2(CCN(c3cnc(Sc4ccnc(N)c4Cl)c(N)n3)CC2)C1N = inactive

Which outcome was entered for the compound Cn1nccc1Nc1nccc(-c2cc3c(s2)C(C)(C)N(CCN2CCOCC2)C3=O)n1 + CNCc1ccccc1-c1csc(C(C)Nc2nc(C)nc3cc(OC)c(OC)cc23)c1 in this test?
active

Also CCNC(=O)CC1N=C(c2ccc(Cl)cc2)c2cc(OC)ccc2-n2c(C)nnc21 (configuration not stated) + C=CC(=O)N1CCN(c2nc(=O)n(-c3c(C)ccnc3C(C)C)c3nc(-c4c(O)cccc4F)c(F)cc23)C(C)C1 , if possible.
inactive

Data origin: PubChem BioAssay AID1963870
